# target_desc: BRDT-BD2 (Homo sapiens, UniProt Q58F21)
# method_notes: AlphaScreen competition assay with biotinylated JQ1, BRDT-BD2
# Type: binding
# Parameters: BRDT-BD2, NP_001717.3 amino acid 269− 380; made in house; host or cells: E. coli NiCo21 (DE3)
readout: IC50 (nM)

# structure_string, readout_number
records = [
    ("CNC(=O)c1ccc(C(=O)Nc2cc(NC(=O)c3ccc4c(c3)c(-c3cc5ccccc5n3C)nn4C)ccc2C)cc1", 13),
    ("CNC(=O)c1cc(NC(=O)c2ccc3c(c2)c(-c2ccc(N)cc2C)nn3C)ccc1C", 18),
    ("CNC(=O)c1ccc(C(=O)Nc2cc(NC(=O)c3ccc4c(c3)c(-c3ccc(N)nc3)nn4C)ccc2C)cc1", 17),
]

Reference source: paper PMC7936271
